Quick reference: melting point of the listed items.

# molecule, melting point, °C
rows = [
    ("CCc1cc2cc(OCCOC)c(C(C)(C#N)Cc3cccc(C#N)c3)cc2[nH]c1=O (centres unmarked)", 130),
    ("CCc1cc2ccc([C@](C)(C#N)Cc3ccccc3)cc2[nH]c1=O (single isomer, unassigned)", 162),
    ("CCc1cc2ccc(C(C#N)(Cc3ccccc3)CC3CC3)cc2[nH]c1=O (centres unmarked)", 212),
    ("CCc1cc2ccc(C(C)(C#N)Cc3cccc(OCCCC#N)c3)cc2[nH]c1=O (centres unmarked)", 148),
    ("Cc1cc2ccc(C(C)(C#N)Cc3cccc(Cl)c3)cc2[nH]c1=O (centres unmarked)", 242),
    ("C#CCOc1cccc(CC(C)(C#N)c2ccc3cc(CC)c(=O)[nH]c3c2)c1 (centres unmarked)", 141),
    ("CCc1cc2ccc(C(C)(C#N)Cc3nc(OC)cc(OC)n3)cc2[nH]c1=O (centres unmarked)", 90),
    ("CCc1cc2ccc(C(C)(C#N)Cc3cccc(C#N)[n+]3[O-])cc2[nH]c1=O (centres unmarked)", 121),
]

====

Some molecules, each annotated with its measured IC50.
- target-desc: TANK-2 enzyme (Homo sapiens, UniProt Q9H2K2)
- Construct: made in house
- Sequence (Q9H2K2 whole entry): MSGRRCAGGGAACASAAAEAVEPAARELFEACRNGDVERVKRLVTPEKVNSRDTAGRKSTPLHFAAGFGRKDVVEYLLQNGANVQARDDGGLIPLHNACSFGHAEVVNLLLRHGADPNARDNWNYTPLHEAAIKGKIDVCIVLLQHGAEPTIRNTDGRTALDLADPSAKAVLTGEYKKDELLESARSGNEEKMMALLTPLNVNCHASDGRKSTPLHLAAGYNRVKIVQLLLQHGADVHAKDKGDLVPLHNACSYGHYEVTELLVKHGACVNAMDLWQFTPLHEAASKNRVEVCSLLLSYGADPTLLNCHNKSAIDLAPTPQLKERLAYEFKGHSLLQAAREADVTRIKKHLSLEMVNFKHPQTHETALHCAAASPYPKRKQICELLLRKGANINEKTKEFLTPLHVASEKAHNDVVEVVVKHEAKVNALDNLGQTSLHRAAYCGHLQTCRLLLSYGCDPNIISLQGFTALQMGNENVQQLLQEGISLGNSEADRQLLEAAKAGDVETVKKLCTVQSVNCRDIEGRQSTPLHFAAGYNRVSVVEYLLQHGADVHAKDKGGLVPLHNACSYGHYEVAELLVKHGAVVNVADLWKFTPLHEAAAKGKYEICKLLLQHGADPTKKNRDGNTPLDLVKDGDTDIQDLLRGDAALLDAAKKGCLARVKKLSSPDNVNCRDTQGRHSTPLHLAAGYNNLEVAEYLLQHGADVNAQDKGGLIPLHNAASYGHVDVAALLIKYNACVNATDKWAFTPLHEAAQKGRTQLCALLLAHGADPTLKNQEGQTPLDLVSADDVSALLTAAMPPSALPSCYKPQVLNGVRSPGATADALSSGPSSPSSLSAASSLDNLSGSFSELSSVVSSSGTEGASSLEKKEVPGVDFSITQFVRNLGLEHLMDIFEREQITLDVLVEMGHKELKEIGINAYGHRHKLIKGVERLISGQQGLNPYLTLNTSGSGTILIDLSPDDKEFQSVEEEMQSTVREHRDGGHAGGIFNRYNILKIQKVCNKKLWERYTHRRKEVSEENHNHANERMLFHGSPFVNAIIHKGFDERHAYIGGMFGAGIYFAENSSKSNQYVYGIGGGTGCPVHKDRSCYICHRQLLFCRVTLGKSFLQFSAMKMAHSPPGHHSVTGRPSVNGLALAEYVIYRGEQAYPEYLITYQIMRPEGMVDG
- test-details: In vitro Scintillation Proximity Assay (SPA) for TANK-2 inhibitory activity
- Format: biochemical
- stated-conditions: read-out: in vitro SPA assay TANK-2 pIC50 (converted)

# molecule, output-unit, IC50
records = [
    ("COc1cc(OC)nc(CC(C)(C#N)c2ccc3cc(C)c(=O)[nH]c3c2)n1 (stereo not drawn) [Compound 308]", "µM", 3.16),
    ("CCc1cc2ccc(C(C)(C#N)Cc3ccncc3)cc2[nH]c1=O (stereo not drawn) [Compound 98]", "µM", 0.0316),
    ("CCc1cc2ccc(C(C)(C#N)CCOc3ccc(Cl)cc3)cc2[nH]c1=O (stereo not drawn) [Compound 146]", "µM", 0.158),
    ("CCc1cc2ccc(C(C)(C#N)Cc3nc(C#N)cc(N(C)C)n3)cc2[nH]c1=O (stereo not drawn) [Compound 318]", "µM", 0.126),
    ("Cc1cc2ccc(C(C)(C#N)Cc3cccc(I)c3)cc2[nH]c1=O (stereo not drawn) [Compound 256]", "µM", 1.26),
    ("Cc1cc2ccc([C@@](C)(C#N)[C@H]3CCc4cc(Br)ccc43)cc2[nH]c1=O [Compound 241]", "µM", 6.31),
    ("Cc1cc2ccc(C(C)(C#N)Cc3ccccc3)cc2[nH]c1=O (stereo not drawn) [Compound 76]", "µM", 0.0316),
    ("CCc1cc2ccc(C(C)(C#N)Cc3cc(OC)nc(C)n3)cc2[nH]c1=O (stereo not drawn) [Compound 366]", "µM", 0.158),
    ("CCc1cc2ccc(C(C#N)(Cc3ccccc3)c3ccccc3)cc2[nH]c1=O (stereo not drawn) [Compound 27]", "µM", 0.631),
]

====

Recorded melting point values for a group of molecules are listed next.
reported-metric: melting point (°C)

# molecule, reported-metric, result-number
records = [
    ("CC(C#N)(Cc1ccccc1)c1ccc2cc(CO)c(=O)[nH]c2c1 (centres unmarked)", "melting point", 176),
    ("CCc1cc2ccc(C(C#N)(Cc3ccccc3)C(C)C)cc2[nH]c1=O (centres unmarked)", "melting point", 234),
    ("CCCC(C#N)(Cc1ccccc1)c1ccc2cc(CC)c(=O)[nH]c2c1 (centres unmarked)", "melting point", 210),
    ("CCc1cc2ccc(C(C)(C#N)Cc3ccc(OC)nc3Cl)cc2[nH]c1=O (centres unmarked)", "melting point", 167),
    ("CCc1cc2ccc(C(C)(C#N)Cc3cccc(OCCS(C)(=O)=O)c3)cc2[nH]c1=O (centres unmarked)", "melting point", 55),
    ("CCc1cc2ccc(C(C)(C#N)Cc3cccc(-c4nc(C)no4)c3)cc2[nH]c1=O (centres unmarked)", "melting point", 152),
    ("CCc1cc2ccc(C(C)(C#N)Cc3cccc(NS(C)(=O)=O)c3)cc2[nH]c1=O (centres unmarked)", "melting point", 80),
    ("CCc1cc2ccc(C(C)(C#N)CN3CCN(c4ccccn4)CC3)cc2[nH]c1=O (centres unmarked)", "melting point", 209),
]

# credit: patent US8778966B2
